Data credit: the supplement of paper PMC7125110

B1: glmS ribozyme (parent)
chain: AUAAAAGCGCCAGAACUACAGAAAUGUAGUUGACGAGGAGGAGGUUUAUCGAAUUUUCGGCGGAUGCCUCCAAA

# Variants of: B1
# assay name: KM; higher = weaker cofactor use; RNA array
# condition label: with glucosamine-6-phosphate
Listed next: entries and their corresponding KM.
Numbers only; they are read as mM.

variant spec: U30G A33C
KM (mM): 2.23
//
variant spec: U30A U65G
KM (mM): 5.25
//
variant spec: A39G A64G
KM (mM): 5.96
//
variant spec: G13U G29U
KM (mM): 3.43
//
variant spec: G32U U69C
KM (mM): 3.47

I am curious: what KM value has been reported for A14G G41U ?
0.206

I am curious: what KM value has been reported for A42G A53G ?
0.248

I am curious: what KM value has been reported for A33U C70U ?
2.76

I am curious: what KM value has been reported for U30G U46G ?
3.99

I am curious: what KM value has been reported for A6G U31G ?
4.99

I am curious: what KM value has been reported for A39U A42G ?
1.44
